target.or.test.system: UniProt:P43114
Sequence (P43114 whole entry): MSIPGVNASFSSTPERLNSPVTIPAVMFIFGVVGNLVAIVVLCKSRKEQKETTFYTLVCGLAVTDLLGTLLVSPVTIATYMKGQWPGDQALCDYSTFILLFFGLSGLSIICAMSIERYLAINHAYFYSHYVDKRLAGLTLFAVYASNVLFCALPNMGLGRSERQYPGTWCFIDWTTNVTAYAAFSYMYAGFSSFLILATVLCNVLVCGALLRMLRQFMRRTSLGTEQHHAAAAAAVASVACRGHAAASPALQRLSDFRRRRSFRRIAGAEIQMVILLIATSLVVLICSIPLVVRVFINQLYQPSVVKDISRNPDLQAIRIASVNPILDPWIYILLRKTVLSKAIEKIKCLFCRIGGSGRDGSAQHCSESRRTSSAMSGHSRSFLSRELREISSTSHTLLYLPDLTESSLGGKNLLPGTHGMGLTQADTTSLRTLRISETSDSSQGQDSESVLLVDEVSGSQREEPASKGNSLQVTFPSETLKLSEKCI
method.description: Agonist activity at rat EP4 receptor expressed in CHO cells assessed as cAMP production after 10 mins by radioimmunoassay
Type: functional, cell-based
# EC50 listing for each entry below

structure.string	EC50
O=C(O)CCCSCCN1C(=O)CC[C@@H]1/C=C/[C@@H](O)Cc1cccc(-c2ccc3ccccc3c2)c1	96 nM
Cc1cccc2oc(-c3cccc(C[C@H](O)/C=C/[C@H]4CCC(=O)N4CCSc4nc(C(=O)O)cs4)c3)nc12	28 nM
O=C(O)c1csc(SCCN2C(=O)CC[C@@H]2/C=C/[C@@H](O)Cc2cccc(-c3nc4cc(Cl)ccc4o3)c2)n1	4.9 nM
O=C(O)c1csc(SCCN2C(=O)CC[C@@H]2/C=C/[C@@H](O)Cc2cccc(-c3nc4cc(Cl)ccc4s3)c2)n1	9.7 nM
O=C(O)c1csc(SCCN2C(=O)CC[C@@H]2/C=C/[C@@H](O)Cc2cccc(-c3cc4ccccc4o3)c2)n1	5.3 nM
O=C(O)CCCSCCN1C(=O)CC[C@@H]1/C=C/[C@@H](O)Cc1cccc(-c2cc3ccccc3o2)c1	7 nM
O=C(O)CCCSCCN1C(=O)CC[C@@H]1/C=C/[C@@H](O)Cc1cccc(-c2ccc3[nH]ccc3c2)c1	85 nM
O=C(O)CCCSCCN1C(=O)CC[C@@H]1/C=C/[C@@H](O)Cc1cccc(N2Cc3ccccc3C2)c1	28 nM
COc1ccc(-c2cccc(C[C@H](O)/C=C/[C@H]3CCC(=O)N3CCSc3nc(C(=O)O)cs3)c2)cc1	15 nM
O=C(O)c1csc(SCCN2C(=O)CC[C@@H]2/C=C/[C@@H](O)Cc2cccc(-c3nc4ccccc4o3)c2)n1	2.2 nM
Cc1cc(C)c2oc(-c3cccc(C[C@H](O)/C=C/[C@H]4CCC(=O)N4CCSc4nc(C(=O)O)cs4)c3)nc2c1	7.7 nM
